Numbers sourced from PubChem BioAssay (Tox21).

- Assay Notes: qHTS RealTime-Glo MT Cell Viability Assay in HEK293 cells - 16 hour (AID 1224872); note: nearly all actives have a fitted effect of over 50% in size; note: potency is the fitted concentration of half-maximal effect
- Stated Conditions: RealTime-Glo luminescence; series mostly up to 76.8 µM
- Text: National Center for Advancing Translational Sciences [NCATS] NIH Chemical Genomics Center [NCGC] U.S. Environmental Protection Agency [EPA] National Institutes of Environmental Health Sciences [NIEHS] National Toxicology Program [NTP] U.S. Food and Drug Administration [FDA] Measure of cell viability is critical in the cell-base assay. Analysis of cell viability is necessary for the characterization of cell responses to cytotoxic drugs and environmental stress. […]
Inconclusive results are not listed. Activity calls are given as the source filed them. Calls come from the whole dose curve; as a rule, active = well fitted cell-killing curve with a large enough effect in the repeat runs; inconclusive = weak or mixed curves, or effect the other way; inactive = flat fitted curve, though single readings scatter.
Measurement Kind: Potency

INSERT INTO assay_data (molecule, endpoint_value) VALUES
  ('CN1C[C@H](C(=O)N[C@]2(C)O[C@@]3(O)[C@@H]4CCCN4C(=O)[C@H](Cc4ccccc4)N3C2=O)C[C@@H]2c3cccc4[nH]cc(c34)C[C@H]21', '23.9 µM (active)'),
  ('CCOc1cccc(-n2cc(C(=O)N3CCN(c4cc(C(=O)O)c5ccccc5c4)CC3)nc2-c2ccc(C)cc2)c1', 'inactive'),
  ('O=C(OC(=O)c1ccccc1)c1ccccc1', 'inactive'),
  ('CCCCCCCCCI', 'inactive'),
  ('Cc1cc(C)cc(N)c1', 'inactive'),
  ('COc1cc(Nc2c(C#N)cnc3cc(OCCCN4CCN(C)CC4)c(OC)cc23)c(Cl)cc1Cl', '19 µM (active)'),
  ('CN1C(=O)c2ccccc2C1=O', 'inactive'),
  ('CCOc1ccc(Cc2nccc3cc(OCC)c(OCC)cc23)cc1OCC', '9.52 µM (active)'),
  ('CCCCCCC(C)(C)C(=O)O', 'inactive'),
  ('c1ccc2sc(SN(C3CCCCC3)C3CCCCC3)nc2c1', 'inactive'),
  ('CC(O)c1ccccc1 (centres undefined)', 'inactive'),
  ('O=C1NC(=O)c2cc([N+](=O)[O-])ccc21', 'inactive'),
  ('Nc1nc2ccc([N+](=O)[O-])cc2s1', 'inactive'),
  ('Cc1ccc(C(C)(C)O)cc1', 'inactive'),
  ('CCCC(=O)C(=O)O', 'inactive'),
  ('CC1(CN2CCC(n3c(=O)[nH]c4ccccc43)CC2)OCc2ccccc2-n2cccc21 (centres undefined)', '10.7 µM (active)'),
  ('CCCCCC[C@@H](O)C/C=C\CCCCCCCC(=O)O', 'inactive'),
  ('OC[C@H]1O[C@@H](n2cnc3c(=S)nc[nH]c32)[C@H](O)[C@@H]1O', 'inactive'),
  ('Oc1cccc(Nc2ccccc2)c1', '22.8 µM (active)'),
  ('CC(C)COCC(CN(Cc1ccccc1)c1ccccc1)N1CCCC1 (centres undefined)', '8.49 µM (active)'),
  ('CN1C(=O)OC(C)(C)C1=O', 'inactive'),
  ('CCC=CC#N', 'inactive'),
  ('NNC(=O)CP(=O)(c1ccccc1)c1ccccc1', 'inactive'),
  ('O=C(/C=C/c1ccc(O)c(O)c1)O[C@@H]1C[C@@](OC(=O)/C=C/c2ccc(O)c(O)c2)(C(=O)O)C[C@@H](O)[C@@H]1O', 'inactive'),
  ('CCCCCCCCCCC(=O)O', 'inactive'),
  ('CCCCN(CCCC)C(C(N)=O)c1ccc(OC)cc1 (centres undefined)', 'inactive'),
  ('CCC1(CO)COCOC1', 'inactive'),
  ('C=C1C[C@@]23CC[C@H]4[C@@](C)(CCC[C@@]4(C)C(=O)O[C@@H]4O[C@H](CO)[C@@H](O)[C@H](O)[C@H]4O)[C@@H]2CC[C@]1(O[C@@H]1O[C@H](CO)[C@@H](O)[C@H](O[C@@H]2O[C@H](CO)[C@@H](O)[C@H](O)[C@H]2O)[C@H]1O[C@@H]1O[C@H](CO)[C@@H](O)[C@H](O)[C@H]1O)C3', 'inactive'),
  ('C1COC1', 'inactive'),
  ('Oc1c(I)cc(I)c2cccnc12', 'inactive'),
  ('OCCN1CCN(CCCN2c3ccccc3Sc3ccc(Cl)cc32)CC1', '23.9 µM (active)'),
  ('C=CC(C)(CCC=C(C)C)OC(=O)CC(C)C (centres undefined)', 'inactive'),
  ('Cc1[nH]cnc1CN1CCc2c(c3ccccc3n2C)C1=O', 'inactive'),
  ('C[C@@H](O)[C@H]1C(=O)N2C(C(=O)O)=C([C@H]3CCCO3)S[C@H]12', 'inactive');

###

- Assay Notes: qHTS assay for small molecule disruptors of the mitochondrial membrane potential - cell viability (AID 720634); note: nearly all actives have a fitted effect of over 20% in size
- Stated Conditions: HepG2 viability, ATP luminescence (CellTiter-Glo), 1 h; series mostly up to 83.2 µM
- Method: U.S. Tox21 Program National Center for Advancing Translational Sciences [NCATS] NIH Chemical Genomics Center [NCGC] U.S. Environmental Protection Agency [EPA] National Institutes of Environmental Health Sciences [NIEHS] National Toxicology Program [NTP] […] Measuring MMP in living cells is commonly used to assess the effect of chemicals on mitochondrial function; decreases in MMP can be detected using lipophilic cationic fluorescent dyes. […] The cytotoxicity was measured in the same assay well of MMP assay. […]
Records with an inconclusive call do not appear. Calls of active or inactive are those of the source. The call rests on the fitted dose curve.
Outcome codes: y for active, n for inactive

INSERT INTO results (compound, discrete_label) VALUES
  ('Oc1cccc(Nc2ccccc2)c1', 'n'),
  ('O=c1cc(-c2ccccc2)oc2ccc3ccccc3c12', 'y'),
  ('NC(=O)c1ccncc1', 'n'),
  ('C[C@H]1c2cccc(O)c2C(O)=C2C(=O)[C@]3(O)C(O)=C(C(N)=O)C(=O)[C@@H](N(C)C)[C@@H]3[C@@H](O)[C@@H]21', 'n'),
  ('Oc1cc2c(cc1O)[C@H]1c3ccc(O)c(O)c3OC[C@@]1(O)C2', 'n'),
  ('Brc1cc(Br)c(Oc2cc(Br)c(Br)cc2Br)cc1Br', 'n'),
  ('Nc1nnc(-c2ccc([N+](=O)[O-])o2)o1', 'n'),
  ('N#[N+]c1ccc2c(S(=O)(=O)[O-])cccc2c1O', 'n'),
  ('O=C(Cn1ccnc1[N+](=O)[O-])NCCO', 'n'),
  ('CCCCCCCC/C=C\CCCCCCCCO', 'n'),
  ('CCOc1ccc(Cc2nccc3cc(OCC)c(OCC)cc23)cc1OCC', 'n'),
  ('CC(C)(O)c1ccc(CNC(=O)c2cccnc2Oc2ccc3nonc3c2)cc1', 'n'),
  ('CCC(OCCCOC)OC(C)=O (stereo not drawn)', 'n');

###

- Target System: Thyrotropin-releasing hormone receptor (Homo sapiens) (UniProt P34981)
- Sequence (P34981 whole entry, looked up): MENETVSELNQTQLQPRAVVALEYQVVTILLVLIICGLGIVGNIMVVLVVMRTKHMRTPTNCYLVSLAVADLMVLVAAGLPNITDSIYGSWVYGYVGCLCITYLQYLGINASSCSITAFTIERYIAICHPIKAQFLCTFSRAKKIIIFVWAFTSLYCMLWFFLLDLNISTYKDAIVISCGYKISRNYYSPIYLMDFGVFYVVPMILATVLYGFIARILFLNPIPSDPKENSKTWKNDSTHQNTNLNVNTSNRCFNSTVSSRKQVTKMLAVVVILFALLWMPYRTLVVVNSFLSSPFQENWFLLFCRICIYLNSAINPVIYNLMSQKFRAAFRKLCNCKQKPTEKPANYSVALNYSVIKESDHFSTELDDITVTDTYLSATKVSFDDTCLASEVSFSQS
- Assay Notes: qHTS assay to identify small molecule antagonists of the thyrotropin-releasing hormone receptor (TRHR) signaling pathway (AID 1346877); note: % is set by controls: 0 for no effect and ±100 for the full control effect
- Stated Conditions: TRHR-HEK293, TRH-induced calcium fluorescence, antagonist mode; series mostly up to 51.3 µM
- Procedure: National Center for Advancing Translational Sciences [NCATS] NIH Chemical Genomics Center [NCGC] U.S. Environmental Protection Agency [EPA] National Institutes of Environmental Health Sciences [NIEHS] National Toxicology Program [NTP] […] The TRHR-Hek293 cells were dispensed at 1500cells/4uL/well in 1536-well black-clear bottom plates using a Multidrop dispenser. […] The fluorescence intensity in the plates was measured using FDSS 7000EX kinetic plate reader for 3 min at 1 sec intervals. […]
Calls of active or inactive are those of the source. Calls follow the shape of the dose curve; as a rule, active = well fitted inhibition curve with a large enough effect in the repeat runs (not every such curve was filed as active); inconclusive = weak or mixed curves; inactive = flat fitted curve, though single readings scatter.
Measurement Kind: activity, negative = inhibition

INSERT INTO measurements (molecule, endpoint_value) VALUES
  ('COc1ccccc1Oc1c(NS(=O)(=O)c2ccc(C(C)(C)C)cc2)nc(-c2ncccn2)nc1OCCO', 'inactive'),
  ('OC1(c2ccccc2)CCNCC1', 'inactive'),
  ('CCCCN1CCCC1C(=O)Nc1c(C)cc(C)cc1C (configuration not stated)', 'inactive'),
  ('CCC(=O)OC', 'inactive'),
  ('O=C(O)C[C@H](NC(=O)OCc1ccccc1)C(=O)O', 'inactive'),
  ('C/C=C/C=C/C=O', 'inactive'),
  ('Nc1ccc(N=Nc2ccccc2)c(N)c1', 'inactive');

###

- Assay Notes: qHTS assay to identify small molecule agonists of the estrogen related receptor (ERR) signaling pathway from Tox21 library (AID 1224849); note: % is set by controls: 0 for no effect and ±100 for the full control effect; nearly all actives have a fitted effect of over 15% in size
- Stated Conditions: ERR reporter cell line, ONE-Glo luciferase, 18 h; at 92.4 µM (top of the series) unless noted
The source made the active and inactive calls. Calls come from the whole dose curve.
Measurement Kind: activity change, positive = activation

INSERT INTO assay_data (compound, measurement_kind, endpoint_value) VALUES
  ('CCCCCCCC/C=C\CCCCCCCCO', 'activity change, positive = activation', '4.79% (inactive)'),
  ('CN1C[C@H](C(=O)N[C@]2(C)O[C@@]3(O)[C@@H]4CCCN4C(=O)[C@H](Cc4ccccc4)N3C2=O)C[C@@H]2c3cccc4[nH]cc(c34)C[C@H]21', 'activity change, positive = activation', '-52.3% [at 42.5 µM] (inactive)'),
  ('C[C@H]1c2cccc(O)c2C(O)=C2C(=O)[C@]3(O)C(O)=C(C(N)=O)C(=O)[C@@H](N(C)C)[C@@H]3[C@@H](O)[C@@H]21', 'activity change, positive = activation', '-33.4% [at 42.5 µM] (inactive)'),
  ('COc1cc(N)c(Cl)cc1C(=O)NC1CCN(CCCOc2ccc(F)cc2)CC1OC (stereo unspecified)', 'activity change, positive = activation', '-39.2% [at 42.5 µM] (inactive)'),
  ('CCCCCC[C@@H](O)C/C=C\CCCCCCCC(=O)OCC(O)CO (stereo partly specified)', 'activity change, positive = activation', '-2.03% (inactive)'),
  ('O=C1C(=O)c2ccccc2C(O)=C1C1CCC(c2ccc(Cl)cc2)CC1 (stereo unspecified)', 'activity change, positive = activation', '0.683% [at 42.5 µM] (inactive)'),
  ('CCCCCCCCCCCCCCN(CCO)CCO', 'activity change, positive = activation', '-78.9% (inactive)'),
  ('CCC1(CO)COCOC1', 'activity change, positive = activation', '7.78% (inactive)'),
  ('Cc1cccc(O)c1N', 'activity change, positive = activation', '-14.7% (inactive)'),
  ('O=C(O)c1ccc(OCCCOc2ccc(C(=O)O)cc2)cc1', 'activity change, positive = activation', '7.07% [at 42.5 µM] (inactive)'),
  ('O=C1Cc2ccccc2N1c1c(Cl)cccc1Cl', 'activity change, positive = activation', '-43.8% (inactive)');
